- Read-out: Broad substrate specificity ATP-binding cassette transporter ABCG2 (Homo sapiens) (UniProt Q9UNQ0)
- Sequence (Q9UNQ0 whole entry, looked up): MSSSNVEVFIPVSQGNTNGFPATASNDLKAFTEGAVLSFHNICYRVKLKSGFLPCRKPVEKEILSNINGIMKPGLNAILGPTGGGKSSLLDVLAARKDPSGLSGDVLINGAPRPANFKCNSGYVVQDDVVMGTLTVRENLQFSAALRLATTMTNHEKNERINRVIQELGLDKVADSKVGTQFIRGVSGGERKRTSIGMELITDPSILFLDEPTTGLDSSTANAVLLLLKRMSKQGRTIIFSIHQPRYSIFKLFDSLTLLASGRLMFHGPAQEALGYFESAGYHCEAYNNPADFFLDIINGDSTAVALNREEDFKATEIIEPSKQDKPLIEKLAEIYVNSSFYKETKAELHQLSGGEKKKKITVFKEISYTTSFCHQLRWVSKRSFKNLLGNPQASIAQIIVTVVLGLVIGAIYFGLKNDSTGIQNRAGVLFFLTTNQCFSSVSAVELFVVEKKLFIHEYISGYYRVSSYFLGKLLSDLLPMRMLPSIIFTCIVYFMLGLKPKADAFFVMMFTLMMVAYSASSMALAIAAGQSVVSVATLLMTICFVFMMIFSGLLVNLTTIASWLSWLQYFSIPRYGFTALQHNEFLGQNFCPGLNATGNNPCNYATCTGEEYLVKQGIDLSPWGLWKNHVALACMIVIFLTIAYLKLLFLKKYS
- experimental.protocol: LTEA_HepaRG_ABCG2: Life Technologies and Expression Analysis (LTEA) Assay for ABC Transporter (ABCG2) using HepaRG (AID 2283465)
- condition.set: mRNA level, 48 h; actives raise or lower the signal
The source made the active and inactive calls. The calls were made as follows: active = hit-call score of the fitted dose curve at least 0.9, where 1 is the maximum; inactive = score below 0.9.
Respond only with the outcome that fits, drawn from active, inactive

Previously resolved entries follow.
- compound: "O=C(O)c1ccccc1C(=O)OCc1ccccc1"
  class.assignment: "inactive"
- compound: "CCN(Cc1cccnc1)C(=O)c1cccc(Cl)c1[C@]1(C)C(=O)N(Cc2ccc(OC)cc2OC)c2ccc(Cl)cc21"
  class.assignment: "active"
- compound: "O=C(OCCCCCCOC(=O)c1ccccc1)c1ccccc1"
  class.assignment: "inactive"
- compound: "Cc1occc1C(=O)Nc1ccc(C(=O)N2CCC(F)(F)/C(=C\\C(=O)N3CCC(N4CCCCC4)CC3)c3ccccc32)cc1"
  class.assignment: "inactive"

Could you please tell me the result logged for O=C(O)c1ccccc1-n1cc(C(=O)O)c(=O)c2cc(Nc3c(F)cc(F)cc3Cl)c(Cl)cc21 in this assay?
inactive

Tell me the assay call for CCCOC(=O)c1cc(O)c(O)c(O)c1 please.
active

What did the test return for COc1cccc([C@H](O)C2CCN(CCc3ccc(F)cc3)CC2)c1OC ?
inactive

Give the logged outcome of this assay for the following compound: CC(C)(c1cc(Br)c(O)c(Br)c1)c1cc(Br)c(O)c(Br)c1
inactive

# outcome recorded in this test, key = CCO[Si](CCCNC(N)=O)(OCC)OCC
inactive

Call for entry O=C(O)Cc1cc(I)c(Oc2ccc(O)c(I)c2)c(I)c1 :
active

Which outcome did this test record for the compound O=C=NCCCCCCN=C=O ?
inactive

* * *

- Read-out: CYP2E1 (gene 1571)
- experimental.protocol: LTEA_HepaRG_CYP2E1: Life Technologies and Expression Analysis (LTEA) Assay for CYP2E1 using HepaRG (AID 2283485)
- condition.set: mRNA level, 48 h; actives raise or lower the signal
Active and inactive are the calls of the source. How the source made its calls: active means hit-call score of the fitted dose curve at least 0.9, where 1 is the maximum; inactive means score below 0.9.
Field 'call' accepts active, inactive

- given.smiles: "CCCCOC(=O)c1ccc(O)cc1"
  class.assignment: "inactive"
- given.smiles: "O=C1c2ccccc2C(=O)N1CCc1noc(-c2ccc(CN3CCCCCC3)s2)n1"
  class.assignment: "inactive"
- given.smiles: "O=C=NCCCCCCN=C=O"
  class.assignment: "inactive"
- given.smiles: "O=c1c(-c2ccc(O)cc2)coc2cc(O)cc(O)c12"
  class.assignment: "inactive"
- given.smiles: "CC/C(=C(/CC)c1ccc(O)cc1)c1ccc(O)cc1"
  class.assignment: "active"
- given.smiles: "CC(C)(c1cc(Br)c(O)c(Br)c1)c1cc(Br)c(O)c(Br)c1"
  class.assignment: "active"
- given.smiles: "CCN(Cc1cccnc1)C(=O)c1cccc(Cl)c1[C@]1(C)C(=O)N(Cc2ccc(OC)cc2OC)c2ccc(Cl)cc21"
  class.assignment: "active"
- given.smiles: "CC(=O)N1CCN(c2ccc(OC[C@H]3CO[C@](Cn4ccnc4)(c4ccc(Cl)cc4Cl)O3)cc2)CC1"
  class.assignment: "active"
- given.smiles: "CCN(CC)C(=O)c1cc(S(=O)(=O)Cc2ccccc2)c(N2CCC(c3ccccc3)CC2)cc1N(CC)CCN(C)C"
  class.assignment: "active"
- given.smiles: "O=CCCCC=O"
  class.assignment: "inactive"

Consider the record given below.
Which result was noted for this molecule in the test: Oc1ccccc1
inactive

* * *

- subject.of.test: Muscarinic acetylcholine receptor M1 (Homo sapiens)
- experimental.protocol: NVS_GPCR_hM1: NovaScreen (NVS) G Protein-Coupled Receptor Assay for human Muscarinic, M1 Receptor (AID 2283270)
Results filed as inconclusive are left out. Calls of active or inactive are those of the source. Rule for the calls: active = hit-call score of the fitted dose curve at least 0.9, where 1 is the maximum; inconclusive = response in the unintended direction; inactive = score below 0.9.
Catalogue of AC50 readings, one per entry.

- given.smiles: "CCCCCCCCCCCC[N+](C)(C)C"
  readout.kind: "AC50"
  reported: "4.64 µM (active)"
- given.smiles: "NCc1cccc(C2CCN(C(=O)c3ccc(C#Cc4ccccc4F)o3)CC2)c1"
  readout.kind: "AC50"
  reported: "1.78 µM (active)"
- given.smiles: "COc1ccc2cc(S(=O)(=O)N[C@H](CC(=O)N[C@H](Cc3ccc(CN4[C@H](C)CCC[C@@H]4C)cc3)C(=O)N(C)C(C)C)c3ccc4c(c3)OCO4)ccc2c1"
  readout.kind: "AC50"
  reported: "3.51 µM (active)"

Param readout = AC50; param system = Muscarinic acetylcholine receptor M1 (Homo sapiens); param query = Clc1cc(Cl)c2c(c1)N=C1CCCCCN1C2 ; response: value
2.74 µM (active)

Tell me reported AC50 for COc1cc(C(=O)NC2CCN(C)CC2)ccc1Nc1ncc2c(n1)N(C1CCCC1)CC(F)(F)C(=O)N2C , tested with Muscarinic acetylcholine receptor M1 (Homo sapiens).
5.54 µM (active)

Given the entry CCN(CC)C(=O)c1cc(S(=O)(=O)Cc2ccccc2)c(N2CCC(c3ccccc3)CC2)cc1N(CC)CCN(C)C , what AC50 was observed with Muscarinic acetylcholine receptor M1 (Homo sapiens)?
8.82 µM (active)

Form entry - test system: Muscarinic acetylcholine receptor M1 (Homo sapiens); read-out: AC50; compound: CN(C)C(=O)C1(N2CCCCC2)CCN(CC[C@@]2(c3ccc(Cl)c(Cl)c3)CN(C(=O)c3ccccc3)CCO2)CC1
11.7 µM (active)

* * *

- subject.of.test: human Neurokinin, NK2 Receptor, TACR2 (gene 6865) (UniProt P21452)
- Sequence (P21452 whole entry, looked up): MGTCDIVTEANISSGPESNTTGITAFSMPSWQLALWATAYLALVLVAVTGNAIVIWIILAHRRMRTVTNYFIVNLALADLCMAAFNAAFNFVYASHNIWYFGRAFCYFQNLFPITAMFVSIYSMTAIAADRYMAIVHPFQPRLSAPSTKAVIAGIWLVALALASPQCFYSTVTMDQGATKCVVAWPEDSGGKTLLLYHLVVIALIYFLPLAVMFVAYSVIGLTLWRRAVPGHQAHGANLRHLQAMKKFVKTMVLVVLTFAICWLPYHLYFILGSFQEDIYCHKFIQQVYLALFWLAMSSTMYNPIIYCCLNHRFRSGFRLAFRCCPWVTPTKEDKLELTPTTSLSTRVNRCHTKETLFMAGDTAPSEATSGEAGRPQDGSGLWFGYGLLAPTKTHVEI
- experimental.protocol: NVS_GPCR_hNK2: NovaScreen (NVS) G Protein-Coupled Receptor Assay for human Neurokinin, NK2 Receptor (AID 2283278);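 also: actives reduce bound radioligand signal relative to DMSO baseline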
Results filed as inconclusive are left out. Active and inactive are the calls of the source. How the source made its calls: active means hit-call score of the fitted dose curve at least 0.9, where 1 is the maximum; inconclusive means response in the unintended direction; inactive means score below 0.9.
readout.kind: AC50

// solved cases for AC50 follow
- given.smiles: "CCN(CC)C(=O)c1cc(S(=O)(=O)Cc2ccccc2)c(N2CCC(c3ccccc3)CC2)cc1N(CC)CCN(C)C"
  AC50: "4.95 µM (active)"
- given.smiles: "CCCCCCCCOC(=O)c1cc(O)c(O)c(O)c1"
  AC50: "7.2 µM (active)"
- given.smiles: "O=c1[nH]sc2ccccc12"
  AC50: "0.38 µM (active)"
- given.smiles: "CN(C)C(=O)C1(N2CCCCC2)CCN(CC[C@@]2(c3ccc(Cl)c(Cl)c3)CN(C(=O)c3ccccc3)CCO2)CC1"
  AC50: "inactive"
- given.smiles: "NCc1cccc(C2CCN(C(=O)c3ccc(C#Cc4ccccc4F)o3)CC2)c1"
  AC50: "2.9 µM (active)"

Fill in: AC50 of CN(C)c1ccc(C(=C2C=CC(=[N+](C)C)C=C2)c2ccc(N(C)C)cc2)cc1 is ___
3.82 µM (active)

Item under review: CCCOC(=O)c1cc(O)c(O)c(O)c1 . Reported AC50?
inactive

// returns reported AC50 for input Cc1cc(F)ccc1-c1cc(N2CC[C@@H](O)[C@H]2CO)ncc1N(C)C(=O)C(C)(C)c1cc(C(F)(F)F)cc(C(F)(F)F)c1
0.181 µM (active)

Bench note: what AC50 did CC1(C)NC(=O)N(c2ccc([N+](=O)[O-])c(C(F)(F)F)c2)C1=O show?
inactive

Data request, read-out AC50, for Cc1oc2c(NC(=O)c3c(Cl)cccc3Cl)cccc2c1C(C)(C)O
inactive

Given O=C1c2ccccc2C(=O)N1CCc1noc(-c2ccc(CN3CCCCCC3)s2)n1 , state its recorded AC50.
12.3 µM (active)

What does the record list as AC50 for CN(C[C@@H](CC[N+]12CCC(C3CCCCC3)(CC1)CC2)c1ccc(Cl)c(Cl)c1)C(=O)c1cc(C(F)(F)F)cc(C(F)(F)F)c1 ?
0.0311 µM (active)

* * *

- Read-out: Vascular cell adhesion molecule 1 (VCAM1), VCAM1 (gene 7412)
- experimental.protocol: BSK_LPS_VCAM1: BioMAP Diversity Plus: LPS Assay for Vascular cell adhesion molecule 1 (VCAM1) Biomarker Activity (AID 2283086)
- condition.set: primary human HUVEC with PBMC; actives raise or lower the signal
Active and inactive are the calls of the source. How the source made its calls: active means hit-call score of the fitted dose curve at least 0.9, where 1 is the maximum; inactive means score below 0.9.
Returns: one label drawn from active, inactive

- given.smiles: "CC(C)(O)c1ccc(CNC(=O)c2cccnc2Oc2ccc3nonc3c2)cc1"
  class.assignment: "inactive"
- given.smiles: "O=C(OCCCCCCOC(=O)c1ccccc1)c1ccccc1"
  class.assignment: "inactive"
- given.smiles: "O=c1c(-c2ccc(O)cc2)coc2cc(O)cc(O)c12"
  class.assignment: "active"
- given.smiles: "OCCO"
  class.assignment: "inactive"
- given.smiles: "CCCCCCCCCCCO"
  class.assignment: "inactive"

Dear colleague, could you share the recorded outcome for CC(C)(C)c1cc(/C=C2\SC(N)=NC2=O)cc(C(C)(C)C)c1O when you have a moment?
active

Query: recorded result category for Cc1ccc(C(C)C)cc1 in this test
inactive

Kindly provide the recorded test outcome for the following compound: Cc1ncc(CO)c(CO)c1O
inactive

Returns: the outcome recorded for O=C1CCC(C2CCCCC2)CC1 in this assay.
inactive

Recorded test call requested for CN1C(=O)CC[C@H]1c1cccnc1
inactive

What classification did Cc1occc1C(=O)Nc1ccc(C(=O)N2CCC(F)(F)/C(=C\C(=O)N3CCC(N4CCCCC4)CC3)c3ccccc32)cc1 end up with in this test?
inactive

# outcome recorded in this test, key = CCCCCCCCCCCCO
active

Give the logged outcome of this assay for the following compound: NCc1cccc(C2CCN(C(=O)c3ccc(C#Cc4ccccc4F)o3)CC2)c1
active
